MEASURED_TARGET: Fibroblast growth factor receptor 1 (Homo sapiens) (UniProt P11362);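 also: values are the mean percent inhibition of FGFR1 across replicate measurements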
Sequence (P11362 22-822 limits assumed): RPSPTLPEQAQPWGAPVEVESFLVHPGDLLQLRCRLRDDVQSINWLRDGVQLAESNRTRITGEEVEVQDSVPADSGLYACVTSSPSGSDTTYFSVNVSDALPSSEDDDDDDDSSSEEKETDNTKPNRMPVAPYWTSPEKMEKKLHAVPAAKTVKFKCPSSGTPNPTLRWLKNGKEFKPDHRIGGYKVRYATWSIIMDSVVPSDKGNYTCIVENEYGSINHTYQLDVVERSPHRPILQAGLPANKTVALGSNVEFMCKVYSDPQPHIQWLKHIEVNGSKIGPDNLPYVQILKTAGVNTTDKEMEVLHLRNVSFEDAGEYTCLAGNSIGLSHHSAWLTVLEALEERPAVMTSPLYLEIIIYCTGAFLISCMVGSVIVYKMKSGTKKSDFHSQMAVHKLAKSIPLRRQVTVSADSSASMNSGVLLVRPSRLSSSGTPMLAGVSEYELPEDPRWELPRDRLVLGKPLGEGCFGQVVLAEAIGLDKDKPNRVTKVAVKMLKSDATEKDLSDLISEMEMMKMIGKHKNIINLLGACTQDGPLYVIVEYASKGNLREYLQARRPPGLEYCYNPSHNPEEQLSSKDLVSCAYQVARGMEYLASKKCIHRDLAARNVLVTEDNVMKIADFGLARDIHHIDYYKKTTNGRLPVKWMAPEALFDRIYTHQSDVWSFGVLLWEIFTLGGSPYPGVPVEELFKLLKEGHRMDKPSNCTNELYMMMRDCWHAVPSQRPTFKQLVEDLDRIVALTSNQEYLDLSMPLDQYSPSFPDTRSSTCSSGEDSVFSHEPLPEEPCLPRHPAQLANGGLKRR
RECORDED_CONDITIONS: at 1 µM
Record form. Attribute: inhibition. Fill in for each entry.
Numbers only, in %.

Study these solved cases before continuing.
Answer with the recorded inhibition of NS(=O)(=O)c1ccc(N/N=C2\C(=O)Nc3ccc(Cl)cc32)cc1 only.
1

Report inhibition, nothing else, for this compound: [O-][S+]1CCN(Cc2ccc(-c3ccc4ncnc(Nc5ccc(OCc6ccccc6)c(Cl)c5)c4c3)o2)CC1
1.21

Provide inhibition values for the following items, in order.
1. CCn1c(-c2nonc2N)nc2c(C#CC(C)(C)O)nc(OCCNC)cc21
2. NS(=O)(=O)c1ccc(NC=C2C(=O)Nc3ccc4ncsc4c32)cc1
3. Cc1cc(O)cc(C)c1/C=C/c1cncc(C(=O)N(C)C)c1
4. O=S(=O)(CCOCc1ccc(-c2ccc3ncnc(Nc4ccc(OCc5cccc(F)c5)c(Cl)c4)c3c2)o1)c1ccccc1

1. 5.9
2. 41.9
3. 1.65
4. 5.27

Hi, could you look up inhibition for each item in my list?
1. CN(C)C(=O)O[C@H]1CN[C@H](C#Cc2cc3ncnc(Nc4ccc(OCc5cccc(F)c5)c(Cl)c4)c3s2)C1
2. NC(=O)c1sc(-n2cnc3ccccc32)cc1OCc1ccccc1Br
3. CC(C)c1ccc2c(c1)NC(=O)/C2=N/Nc1ccc(S(N)(=O)=O)cc1
4. CC(C)c1ccc(Nc2nccc(-c3cnn4ncccc34)n2)cc1
5. Nc1nccc(C#Cc2cncnc2Nc2ccc(OCc3cccc(F)c3)c(Cl)c2)n1
6. Cc1ccc2c(-c3ccnc(Nc4cccc(C(F)(F)F)c4)n3)c(-c3ccccc3)nn2n1

1. 5.24
2. 6.22
3. -0.01
4. 4.17
5. 4.02
6. 8.78

Data origin: ChEMBL document CHEMBL1961873
